Documented Percent Effect across a set of molecules
- targetOrTestSystem: Sialic acid-binding Ig-like lectin 9 (Homo sapiens) (UniProt Q9Y336)
- Sequence (Q9Y336 whole entry): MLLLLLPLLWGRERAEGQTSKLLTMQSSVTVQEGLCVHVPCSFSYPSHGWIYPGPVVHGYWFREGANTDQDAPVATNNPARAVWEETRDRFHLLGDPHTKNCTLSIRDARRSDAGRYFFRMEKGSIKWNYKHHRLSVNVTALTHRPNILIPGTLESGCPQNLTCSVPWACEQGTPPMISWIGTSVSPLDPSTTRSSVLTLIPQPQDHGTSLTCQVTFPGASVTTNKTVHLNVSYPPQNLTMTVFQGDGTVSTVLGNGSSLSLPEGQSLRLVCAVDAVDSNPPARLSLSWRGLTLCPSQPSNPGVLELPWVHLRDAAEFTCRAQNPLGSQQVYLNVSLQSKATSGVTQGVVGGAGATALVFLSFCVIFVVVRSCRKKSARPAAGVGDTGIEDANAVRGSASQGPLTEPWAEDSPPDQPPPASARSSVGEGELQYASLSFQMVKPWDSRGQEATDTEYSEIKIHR
- assaySummary: Hs-Siglec9 ALPHAscreen SOP 20170721
- Parameters: scale not given: direction of the effect not stated beside the values
- runParameters: 10 µM
Output spec: scalar in %, unitless text.

Example molecules with recorded Percent Effect:
>  <molecule>
CC(NCc1ccc(Cl)o1)c1nnc2n1CCCC2 (configuration not stated)

>  <assayResult>
2.02

$$$$
>  <molecule>
CC(=O)c1cccc(NC(=O)Cn2cc(I)cn2)c1

>  <assayResult>
2.47

$$$$
>  <molecule>
CC(C)N(C)S(=O)(=O)N(C)Cc1ccc2c(c1)OCO2

>  <assayResult>
5.6

$$$$
>  <molecule>
O=C1CCCN1CC1CN(C(=O)CC2CCCC2)Cc2nccn2C1 (configuration not stated)

>  <assayResult>
6.88

$$$$
>  <molecule>
CO[C@@H]1CC[C@H]2[C@H]1OCCN2C(=O)C1=CCCC1

>  <assayResult>
-0.155

$$$$

Value lookup for Percent Effect; key = Cc1ccsc1[C@@H]1CCN(C(=O)c2cc3ccccc3[nH]2)C[C@H]1O -5.71

So what's the measured Percent Effect for this one? O=C(Cn1cnc(-c2ccccc2)cc1=O)Nc1ccncc1 -1.53

// lookup Percent Effect for CN(CCO)Cc1nnc(C2CCN(C(=O)C(C)(C)C)CC2)n1C -1.99

Report Percent Effect for Cc1nonc1CC(=O)N1C[C@@H]2CC[C@H](C1)N(Cc1ccccc1)C2=O please. 6.66

Tell me the measured Percent Effect of Cn1ncc2c(NCCC34CCCN3CCC4)nc(C3CCCC3)nc21 , please. 3.33

Need Percent Effect, item COc1cc2cc(C(=O)O)n(C)c2c(OC)c1OC 8.78

# lookup: Percent Effect of Cc1ccc(CN2CCn3c(C(=O)N(C)C)cnc3C2)s1 -0.423

----------
- targetOrTestSystem: Proteasome subunit beta (Trypanosoma cruzi) (UniProt O96673)
- Sequence (whole entry): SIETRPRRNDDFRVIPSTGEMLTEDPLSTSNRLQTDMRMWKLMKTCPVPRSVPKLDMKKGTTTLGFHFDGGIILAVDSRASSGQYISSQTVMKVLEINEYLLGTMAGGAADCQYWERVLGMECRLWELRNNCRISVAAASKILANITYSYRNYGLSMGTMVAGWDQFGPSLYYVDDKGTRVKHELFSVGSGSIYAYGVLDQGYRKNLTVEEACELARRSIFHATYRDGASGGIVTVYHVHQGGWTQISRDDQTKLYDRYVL
- assaySummary: Trypanosoma cruzi proteasome chymotrypsin-like activity (TcProtChymo) assay. Also: in the data most compounds retested in dose-response had high values.
- Type: functional
- Parameters: scale not given: direction of the effect not stated beside the values
- runParameters: 9.37 µM
propertyMeasured: Percent Effect (%)
Use % as the unit, but write only the number.

>  <molecule>
CCS(=O)(=O)N1CCC2(CCCN(Cc3cc(OC)ccc3F)C2)C1 (stereo unspecified)

>  <Percent Effect / %>
14.6

$$$$
>  <molecule>
Cc1ccc(=O)n(CC2(O)CCN(Cc3cc(C)c(O)c(C)c3)CC2)n1

>  <Percent Effect / %>
13.3

$$$$
>  <molecule>
CCn1ccnc1-c1nc2cc(S(=O)(=O)N3CCCC3)ccc2n1C

>  <Percent Effect / %>
4.97

$$$$
>  <molecule>
Cc1nc(C2CCCN(C(=O)c3sccc3C3CC3)C2)no1 (stereo unspecified)

>  <Percent Effect / %>
11.9

$$$$
>  <molecule>
COc1ccc(CC(=O)N(C)Cc2nnc3ccccn23)cc1

>  <Percent Effect / %>
17.1

$$$$
>  <molecule>
CC(=O)Nc1cccc(C(=O)Nc2cnc3n2CCCC3)c1

>  <Percent Effect / %>
6.14

$$$$
>  <molecule>
Fc1ccc(CN2CCCC(c3nnc(-c4cnccn4)o3)C2)cc1F (stereo unspecified)

>  <Percent Effect / %>
12

$$$$
>  <molecule>
Cn1ncc2c(=O)[nH]c(CN3CCC(Cc4ccccc4)CC3)nc21

>  <Percent Effect / %>
7.7

$$$$

Which Percent Effect reading was recorded for the molecule Cc1nc(C2CCCN2C(=O)c2ccccc2)ncc1C(N)=O (stereo unspecified) ? 3.79

Reported Percent Effect, molecule CC(=O)Nc1nc(C(=O)NCc2ccc(N3CCCCCC3)nc2)cs1 : ____ 20.6

Form field: reported Percent Effect of O=C(Nc1cnn(CCN2CCOCC2)c1)c1cc(F)ccc1F -3.17
